# Assay Protocol: in vitro
# Condition Info: PAMPA, pH 5
# Description: Permeability of compound at pH 5 by PAMPA assay
Experimental Readout: Papp (×10⁻⁶ cm/s)
Answers are plain numbers, in ×10⁻⁶ cm/s.

Enquiry: Let me know recorded Papp for CC(=O)NC(C)c1ccc2nc(-c3ccc(Oc4cccc(OCC5CC5)c4)nc3)oc2c1 (stereo unspecified) , thanks.
Return: 27.2

----------
# Assay Protocol: in vivo
# Condition Info: ICR, mouse, iv, 0.1 mg/kg
# Description: Volume of distribution at steady state in ICR mouse at 0.1 mg/kg, iv
Experimental Readout: Vd (L/kg)
Answers are plain numbers, in L/kg.

Enquiry: Let me know recorded Vd for CC(=O)NC(C)c1ccc2nc(-c3ccc(Oc4cccc(OCC5CC5)c4)nc3)oc2c1 (stereo unspecified) , thanks.
Return: 0.269
